Protocol description: Antioxidative effect in the DPPH scavenging method
Condition context: 30 minutes, 517 nm
Quantity measured: IC 50 (scavenges DPPH by 50%)
Please state the number and follow it with the unit.

O=c1ccc2cc3ccoc3c(O)c2o1 [Xanthotoxol, 8-hydroxypsoralen]: 24.0 µg/mL
O=C1O[C@H]([C@@H](O)CO)C(O)=C1O [Vitamin C, vitamin C, reference compound]: 8.43 µg/mL
COc1c2ccoc2c(O)c2oc(=O)ccc12 [8-Hydroxybergapten]: 20.3 µg/mL

Let us move to another entry and its IC 50 (scavenges DPPH by 50%).
CC(C)=CCc1c2ccoc2c(O)c2oc(=O)ccc12 [Prangenidin] has a reported IC 50 (scavenges DPPH by 50%) of 21.6 µg/mL
